experimental target: 5-hydroxytryptamine receptor 2A (Rattus norvegicus)
Sequence (P14842 whole entry): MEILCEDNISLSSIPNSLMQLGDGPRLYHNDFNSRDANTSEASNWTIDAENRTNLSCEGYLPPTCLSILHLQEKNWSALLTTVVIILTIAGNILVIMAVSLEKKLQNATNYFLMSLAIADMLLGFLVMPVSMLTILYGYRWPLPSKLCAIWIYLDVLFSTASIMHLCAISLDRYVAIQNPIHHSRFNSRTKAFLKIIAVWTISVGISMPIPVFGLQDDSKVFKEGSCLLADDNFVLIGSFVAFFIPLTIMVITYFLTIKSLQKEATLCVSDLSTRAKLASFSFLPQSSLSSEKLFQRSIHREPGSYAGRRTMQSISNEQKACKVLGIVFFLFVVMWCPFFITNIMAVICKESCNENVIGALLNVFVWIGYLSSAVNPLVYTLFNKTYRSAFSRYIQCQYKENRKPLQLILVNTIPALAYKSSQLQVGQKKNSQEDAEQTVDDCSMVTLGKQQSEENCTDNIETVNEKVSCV
pKi: −log10 of the molar value.
metric name: pKi

>>> print(df.to_string())
                                   compound  relational_operator  value
0  CN1CCc2cc(Cl)c(O)cc2[C@@H](c2ccccc2)C1 [SCH 23390,R(+)]                    =   7.70
1          Clc1cncc(N2CCNCC2)n1 [L-630,571]                    <   5.00
2  c1ccc2nc(N3CCNCC3)ccc2c1 [2-Piperazin-1-yl-quinoline (Quipazine)]                    =   6.21
3  OCCN1CCN(CC/C=C2/c3ccccc3Sc3ccc(C(F)(F)F)cc32)CC1                    =   8.70
4  CN1CCN(C2=Cc3cc(Cl)ccc3C(=CC#N)c3ccccc32)CC1 [CAS_79781-95-6]                    =   9.10
5  O=c1[nH]c2ccccc2n1CCCN1CCC(n2c(=O)[nH]c3cc(Cl)ccc32)CC1                    =   6.53
6  CN1CCCCC1CCN1c2ccccc2Sc2ccc([S+](C)[O-])cc21 (centres undefined)                    =   8.20
7  O=c1[nH]c2ccccc2n1C1CCN(CCCC(c2ccc(F)cc2)c2ccc(F)cc2)CC1                    =   8.10
8  CN1CCN(C2=Nc3cscc3C(=CC#N)c3cscc32)CC1 [NSC_3086153]                    =   7.40

* * *

pKi: −log10 of the molar value.
pKi values recorded for 5-hydroxytryptamine receptor 2C (Rattus norvegicus, UniProt P08909)
metric name: pKi

                                    compound                       experimental_target  relational_operator  value
 0  O=C(c1ccc(F)cc1)C1CCN(CCn2c(=O)[nH]c3ccccc3c2=O)CC1  5-hydroxytryptamine receptor 2C (Rattus norvegicus, UniProt P08909)                    =   7.55
 1          CCN(CC)CCNC(=O)c1cc(Cl)c(N)cc1OC  5-hydroxytryptamine receptor 2C (Rattus norvegicus, UniProt P08909)                    <   5.00
 2  O=c1[nH]c2ccccc2n1C1CCN(CCCC(c2ccc(F)cc2)c2ccc(F)cc2)CC1  5-hydroxytryptamine receptor 2C (Rattus norvegicus, UniProt P08909)                    <   5.00
 3                      Clc1cncc(N2CCNCC2)n1  5-hydroxytryptamine receptor 2C (Rattus norvegicus, UniProt P08909)                    =   6.59
 4  CN1CCCCC1CCN1c2ccccc2Sc2ccc([S+](C)[O-])cc21 (configuration not stated)  5-hydroxytryptamine receptor 2C (Rattus norvegicus, UniProt P08909)                    =   7.10
 5  O=C1CC2(CCCC2)CC(=O)N1CCCCN1CCN(c2nsc3ccccc23)CC1  5-hydroxytryptamine receptor 2C (Rattus norvegicus, UniProt P08909)                    =   8.01
 6  O=c1[nH]c2ccccc2n1CCCN1CCC(n2c(=O)[nH]c3cc(Cl)ccc32)CC1  5-hydroxytryptamine receptor 2C (Rattus norvegicus, UniProt P08909)                    <   5.00
 7  CN1CCc2cc(Cl)c(O)cc2[C@@H](c2ccccc2)C1 [SCH 23390,R(+)]  5-hydroxytryptamine receptor 2C (Rattus norvegicus, UniProt P08909)                    =   7.87
 8  CN1CCN(CC/C=C2/c3ccccc3Sc3ccc(S(=O)(=O)N(C)C)cc32)CC1  5-hydroxytryptamine receptor 2C (Rattus norvegicus, UniProt P08909)                    =   5.81
 9                  c1ccc2nc(N3CCNCC3)ccc2c1  5-hydroxytryptamine receptor 2C (Rattus norvegicus, UniProt P08909)                    =   6.47
10    CN1CCN(C2=Nc3cscc3C(=CC#N)c3cscc32)CC1  5-hydroxytryptamine receptor 2C (Rattus norvegicus, UniProt P08909)                    =   7.21
11  CCNC(=O)N1CCN(CCCC(c2ccc(F)cc2)c2ccc(F)cc2)CC1  5-hydroxytryptamine receptor 2C (Rattus norvegicus, UniProt P08909)                    =   5.94
